Reference source: patent US20080221132A1

Experiment: in vivo
Settings: male, CD-1, mouse, ip, 20 mg/kg, AUC (h * ng/ml)

compound | AUC
C#Cc1cccc(Nc2ncnc3cc(OC)c(OCCCCCCC(=O)NO)cc23)c1 [Compound 12] | 3750 ng·h/mL
